target: T7 RNA polymerase (Escherichia phage T7); experiment: IVT capping rate of mRNA by LC-MS after RNase H cleavage; type: biochemical; settings: LC-MS of mRNA transcribed with the cap analog
Sequence (P00573 whole entry): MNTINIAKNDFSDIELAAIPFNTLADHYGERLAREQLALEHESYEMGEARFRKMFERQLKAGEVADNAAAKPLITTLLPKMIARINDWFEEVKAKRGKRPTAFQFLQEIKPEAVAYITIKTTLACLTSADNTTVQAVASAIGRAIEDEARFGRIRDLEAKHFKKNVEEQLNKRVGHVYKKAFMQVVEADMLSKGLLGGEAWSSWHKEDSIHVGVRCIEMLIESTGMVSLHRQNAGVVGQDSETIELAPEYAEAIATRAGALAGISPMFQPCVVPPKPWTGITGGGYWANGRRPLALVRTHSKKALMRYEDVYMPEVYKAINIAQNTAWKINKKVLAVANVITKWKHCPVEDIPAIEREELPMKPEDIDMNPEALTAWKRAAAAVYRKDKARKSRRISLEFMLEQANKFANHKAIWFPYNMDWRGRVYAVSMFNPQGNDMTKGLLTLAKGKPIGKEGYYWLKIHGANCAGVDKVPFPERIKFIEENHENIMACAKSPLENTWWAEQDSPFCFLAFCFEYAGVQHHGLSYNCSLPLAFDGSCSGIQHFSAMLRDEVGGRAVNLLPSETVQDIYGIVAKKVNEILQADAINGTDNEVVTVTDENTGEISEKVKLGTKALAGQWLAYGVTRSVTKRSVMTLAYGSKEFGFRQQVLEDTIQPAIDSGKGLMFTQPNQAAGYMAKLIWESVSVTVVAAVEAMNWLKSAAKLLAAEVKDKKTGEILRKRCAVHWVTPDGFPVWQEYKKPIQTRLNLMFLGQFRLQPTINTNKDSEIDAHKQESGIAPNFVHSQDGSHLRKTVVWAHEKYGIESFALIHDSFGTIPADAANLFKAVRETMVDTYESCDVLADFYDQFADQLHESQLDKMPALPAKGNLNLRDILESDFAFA
property-measured: Capping rate (%)
// units = %; emit number, no label

## Task I have this compound here, COC1C(OP(=O)(O)OC[C@H]2O[C@@H](n3cnc4c(=O)[nH]c(N)nc43)C(O)C2O)[C@@H](COP(=O)(O)OP(=O)(O)OP(=O)(O)/C=C/[C@H]2O[C@@H](n3c[n+](C)c4c(=O)[nH]c(N)nc43)C(O)C2O)O[C@H]1n1cnc2c(N)ncnc21 (stereo partly drawn) , and I need its recorded Capping rate.
## Result 96.3

## Task I have this compound here, COC1[C@@H](OP(=O)(O)/C=C/[C@H]2O[C@@H](n3cnc4c(=O)[nH]c(N)nc43)C(O)[C@H]2O)[C@@H](COP(=O)(O)OP(=O)(O)OP(=O)(O)/C=C\[C@H]2O[C@@H](n3c[n+](C)c4c(=O)[nH]c(N)nc43)[C@@H](O)C2O)O[C@H]1n1cnc2c(N)ncnc21 (stereo partly drawn) , and I need its recorded Capping rate.
## Result 94.5

## Task I have this compound here, COC1C(OP(=O)(O)OC[C@H]2O[C@@H](n3cnc4c(=O)[nH]c(N)nc43)C(O)C2O)[C@@H](COP(=O)(O)OP(=O)(O)OP(=O)(O)/C=C/[C@H]2O[C@@H](n3c[n+](C)c4c(=O)[nH]c(N)nc43)C(O)C2CN(C)C(C)=O)O[C@H]1n1cnc2c(N)ncnc21 (stereo partly drawn) , and I need its recorded Capping rate.
## Result 95.7

## Task I have this compound here, COC1C(OP(=O)(O)OC[C@H]2O[C@@H](n3cnc4c(=O)[nH]c(N)nc43)C(O)C2O)[C@@H](/C=C/P(=O)(O)OP(=O)(O)OP(=O)(O)OC[C@H]2O[C@@H](n3c[n+](C)c4c(=O)[nH]c(N)nc43)C(O)C2O)O[C@H]1n1cnc2c(N)ncnc21 (stereo partly drawn) , and I need its recorded Capping rate.
## Result 95.3

## Task I have this compound here, COC1[C@@H](OP(=O)(O)OC[C@H]2O[C@@H](n3cnc4c(=O)[nH]c(N)nc43)C(O)[C@H]2O)[C@@H](/C=C\P(=O)(O)OP(=O)(O)OP(=O)(O)/C=C\[C@H]2O[C@@H](n3c[n+](C)c4c(=O)[nH]c(N)nc43)[C@@H](O)C2O)O[C@H]1n1cnc2c(N)ncnc21 (stereo partly drawn) , and I need its recorded Capping rate.
## Result 90.2

## Task I have this compound here, CCCC(=O)NCC1C(O)[C@H](n2c[n+](C)c3c(=O)[nH]c(N)nc32)O[C@@H]1/C=C/P(=O)(O)OP(=O)(O)OP(=O)(O)OC[C@H]1O[C@@H](n2cnc3c(N)ncnc32)C(OC)C1OP(=O)(O)OC[C@H]1O[C@@H](n2cnc3c(=O)[nH]c(N)nc32)C(O)C1O (stereo partly drawn) , and I need its recorded Capping rate.
## Result 95.9

## Task I have this compound here, COC1C(OP(=O)(O)/C=C/[C@H]2O[C@@H](n3cnc4c(=O)[nH]c(N)nc43)C(O)C2O)[C@@H](COP(=O)(O)OP(=O)(O)OP(=O)(O)OC[C@H]2O[C@@H](n3c[n+](C)c4c(=O)[nH]c(N)nc43)C(O)C2O)O[C@H]1n1cnc2c(N)ncnc21 (stereo partly drawn) , and I need its recorded Capping rate.
## Result 96.4

## Task I have this compound here, COC1C(OP(=O)(O)OC[C@H]2O[C@@H](n3ccc(=O)[nH]c3=O)C(O)C2O)[C@@H](COP(=O)(O)OP(=O)(O)OP(=O)(O)/C=C/[C@H]2O[C@@H](n3c[n+](C)c4c(=O)[nH]c(N)nc43)C(O)C2CNC(C)=O)O[C@H]1n1cnc2c(N)ncnc21 (stereo partly drawn) , and I need its recorded Capping rate.
## Result 96.2

## Task I have this compound here, COC1C(OP(=O)(O)OC[C@H]2O[C@@H](n3cnc4c(=O)[nH]c(N)nc43)C(O)C2O)[C@@H](COP(=O)(O)OP(=O)(O)OP(=O)(O)/C=C/[C@H]2O[C@@H](n3c[n+](C)c4c(=O)[nH]c(N)nc43)C(O)C2CNC(C)=O)O[C@H]1n1cnc2c(N)ncnc21 (stereo partly drawn) , and I need its recorded Capping rate.
## Result 96.6
